The origin of these recorded values is paper PMC3419725.

Target: EphA2 (Homo sapiens)
Construct: Methods: biotinylated extracellular domain (ECD)
Sequence (P29317 28-206 limits assumed): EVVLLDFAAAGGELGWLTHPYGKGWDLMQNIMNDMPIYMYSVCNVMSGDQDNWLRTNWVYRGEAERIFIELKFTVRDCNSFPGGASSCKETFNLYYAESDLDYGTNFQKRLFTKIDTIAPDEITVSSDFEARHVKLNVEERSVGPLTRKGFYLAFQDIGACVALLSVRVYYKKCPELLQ
Experiment: SPR; also receptor activation in cells
value type: pKd
Answers are plain numbers, as −log10 of the molar value.

Asked: Notebook: pull reported pKd for EphA2 (Homo sapiens), entry COc1cc2nc(N3CCN(C(=O)C4COc5ccccc5O4)CC3)nc(N)c2cc1OC (stereo not shown)
Given back: 4.32
